The binders listed here are annotated with their Specific activity (% of Neupogen®), from EC50 in luciferase reporter assay.
Biological target: T1, human G-CSF receptor (human, UniProt Q99062 25-836)
T1 sequence (looked up): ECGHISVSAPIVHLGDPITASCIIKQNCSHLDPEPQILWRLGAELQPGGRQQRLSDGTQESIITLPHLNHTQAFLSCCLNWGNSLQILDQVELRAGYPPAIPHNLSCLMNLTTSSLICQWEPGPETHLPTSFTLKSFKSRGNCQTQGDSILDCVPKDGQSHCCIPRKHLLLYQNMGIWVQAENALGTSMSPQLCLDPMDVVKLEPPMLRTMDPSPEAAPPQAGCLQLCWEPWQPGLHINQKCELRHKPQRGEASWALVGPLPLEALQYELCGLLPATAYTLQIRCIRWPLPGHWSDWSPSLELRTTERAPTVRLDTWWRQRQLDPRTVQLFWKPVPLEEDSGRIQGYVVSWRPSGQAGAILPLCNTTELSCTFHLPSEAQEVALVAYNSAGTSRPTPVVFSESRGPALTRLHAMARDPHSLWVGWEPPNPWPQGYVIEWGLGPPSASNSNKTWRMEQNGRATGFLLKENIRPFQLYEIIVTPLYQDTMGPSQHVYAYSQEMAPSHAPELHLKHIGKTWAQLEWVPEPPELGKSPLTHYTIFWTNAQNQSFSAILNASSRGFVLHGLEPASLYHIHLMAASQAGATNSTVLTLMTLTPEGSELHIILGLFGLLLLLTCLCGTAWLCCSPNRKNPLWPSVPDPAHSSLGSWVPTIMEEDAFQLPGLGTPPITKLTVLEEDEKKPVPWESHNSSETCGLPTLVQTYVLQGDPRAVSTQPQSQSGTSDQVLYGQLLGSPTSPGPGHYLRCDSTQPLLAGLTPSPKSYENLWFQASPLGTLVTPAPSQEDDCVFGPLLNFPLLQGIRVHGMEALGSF
Experiment: cell-based or functional assay

Observe how each entry below is paired with its result.
# binder, readout_value
rows = [
    ("Single-chain G-CSF dimer (ligand) TPLGPASSLPQSFLLKCLEQVRKIQGDGAALQEKLCATYKLCHPEELVLLGHSLGIPWAPLSSCPSQALQLAGCLSQLHSGLFLYQGLLQALEGISPELGPTLDTLQLDVADFATTIWQQMEELGMAPALQPTQGAMPAFASAFQRRAGGVLVASHLQSFLEVSYRVLRHLAQPTPLGPASSLPQSFLLKCLEQVRKIQGDGAALQEKLCATYKLCHPEELVLLGHSLGIPWAPLSSCPSQALQLAGCLSQLHSGLFLYQGLLQALEGISPELGPTLDTLQLDVADFATTIWQQMEELGMAPALQPTQGAMPAFASAFQRRAGGVLVASHLQSFLEVSYRVLRHLAQP", "214 % of Neupogen®"),
    ("Single-chain G-CSF dimer (K16R)copy 1,2 (ligand) TPLGPASSLPQSFLLRCLEQVRKIQGDGAALQEKLCATYKLCHPEELVLLGHSLGIPWAPLSSCPSQALQLAGCLSQLHSGLFLYQGLLQALEGISPELGPTLDTLQLDVADFATTIWQQMEELGMAPALQPTQGAMPAFASAFQRRAGGVLVASHLQSFLEVSYRVLRHLAQPTPLGPASSLPQSFLLRCLEQVRKIQGDGAALQEKLCATYKLCHPEELVLLGHSLGIPWAPLSSCPSQALQLAGCLSQLHSGLFLYQGLLQALEGISPELGPTLDTLQLDVADFATTIWQQMEELGMAPALQPTQGAMPAFASAFQRRAGGVLVASHLQSFLEVSYRVLRHLAQP", "135 % of Neupogen®"),
    ("Single-chain G-CSF dimer PEG20000 (ligand, SPA-PEG 20000 covalently linked to the available PEGylation sites; number and positions not stated) TPLGPASSLPQSFLLKCLEQVRKIQGDGAALQEKLCATYKLCHPEELVLLGHSLGIPWAPLSSCPSQALQLAGCLSQLHSGLFLYQGLLQALEGISPELGPTLDTLQLDVADFATTIWQQMEELGMAPALQPTQGAMPAFASAFQRRAGGVLVASHLQSFLEVSYRVLRHLAQPTPLGPASSLPQSFLLKCLEQVRKIQGDGAALQEKLCATYKLCHPEELVLLGHSLGIPWAPLSSCPSQALQLAGCLSQLHSGLFLYQGLLQALEGISPELGPTLDTLQLDVADFATTIWQQMEELGMAPALQPTQGAMPAFASAFQRRAGGVLVASHLQSFLEVSYRVLRHLAQP", "25 % of Neupogen®"),
]

Now look at this one.
Ask | Tell me the measured Specific activity (% of Neupogen®), from EC50 in luciferase reporter assay of Single-chain G-CSF dimer (K16R K34R K40R)copy 1,2 PEG5000 (ligand, SPA-PEG 5000 covalently linked to the available PEGylation sites; number and positions not stated) TPLGPASSLPQSFLLRCLEQVRKIQGDGAALQERLCATYRLCHPEELVLLGHSLGIPWAPLSSCPSQALQLAGCLSQLHSGLFLYQGLLQALEGISPELGPTLDTLQLDVADFATTIWQQMEELGMAPALQPTQGAMPAFASAFQRRAGGVLVASHLQSFLEVSYRVLRHLAQPTPLGPASSLPQSFLLRCLEQVRKIQGDGAALQERLCATYRLCHPEELVLLGHSLGIPWAPLSSCPSQALQLAGCLSQLHSGLFLYQGLLQALEGISPELGPTLDTLQLDVADFATTIWQQMEELGMAPALQPTQGAMPAFASAFQRRAGGVLVASHLQSFLEVSYRVLRHLAQP , please.
Reply | 10 % of Neupogen®
